System: Mycobacterium tuberculosis variant bovis
Assay Name: Antitubercular activity against active stage Mycobacterium bovis BCG ATCC 35734 measured after 8 days by nitrate reductase assay
Format: functional
Condition Info: ATCC 35734, 192 h
Property: log10(MIC); scope: individual molecules
On a log10 scale: recorded MIC, unit µg/mL.

// solved cases for log10(MIC) follow
[[record]]
smiles_text = "O=C(NC[C@H]1CN(c2ccc(N3CC4(COC4)C3)c(F)c2)C(=O)O1)c1ccno1"
observation_type = "log10(MIC)"
experimental_result = 0.99

[[record]]
smiles_text = "O=C1O[C@@H](CNC(=S)Nc2ccccc2F)CN1c1ccc(N2CC3(COC3)C2)c(F)c1"
observation_type = "log10(MIC)"
experimental_result = 1.65

[[record]]
smiles_text = "CC(=O)NC[C@H]1CN(c2ccc(N3CCOCC3)c(F)c2)C(=O)O1"
observation_type = "log10(MIC)"
experimental_result = -0.38

[[record]]
smiles_text = "CC(=O)OCC(=O)NC[C@H]1CN(c2ccc(N3CC4(COC4)C3)c(F)c2)C(=O)O1"
observation_type = "log10(MIC)"
experimental_result = 0.80


Bench note: what log10(MIC) did "CC(=O)NC[C@H]1CN(c2ccc(C3=C[C@H]4CC[C@@H](C3)N4C(=O)OC(C)(C)C)c(F)c2)C(=O)O1" show?
1.49

Bench note: what log10(MIC) did "CC(=O)NC[C@H]1CN(c2ccc(N3CC4(COC4)C3)c(F)c2)C(=O)O1" show?
0.26

Bench note: what log10(MIC) did "NC[C@H]1CN(c2ccc(N3CC4(COC4)C3)c(F)c2)C(=O)O1" show?
1.47
